# Test system: SR leukemia
# Method Description: NCI tumour cell line growth inhibition, 48 h
I'd be grateful if you could share measured TGI for these entries.

Check out these entries, answers already filled in.
| Compound | TGI |
| --- | --- |
| O=C(O)C(SC(=S)c1ccc(C(=S)SC(C(=O)O)c2ccccc2)cc1)c1ccccc1 (centres undefined) | > 100 µM |
| Cn1cc(C(=O)NCCC(=N)N)cc1NC(=O)C1=[N+](C)C=C(NC(=O)c2cccc(C(=O)NC3=CC(C(=O)Nc4cc(C(=O)NCCC(=N)N)cn4C)=[N+](C)C3)c2)C1 | > 100 µM |
| N#Cc1c(N)nc(-c2ccc(Cl)cc2)c2c1-c1ccccc1S(=O)(=O)CC2 | > 100 µM |

Below: the item to evaluate.
Input: Lab note: need TGI for C[C@]12C=CC(=O)C=C1CC[C@@H]1[C@@H]2CC[C@]2(C)OC(=O)CC[C@@H]12 on SR leukemia, anyone have it?
Output: > 489 µM
